assay: Quantitative High-Throughput drug screen in 47 multiple myeloma cell lines against the NCATS MIPE library collection: LP1_DSMZ cell viability assay (AID 1918982); settings: LP1 myeloma viability, CellTiter-Glo ATP luminescence, 48 h; series mostly up to 45.8 µM; further: nearly all actives have a fitted effect of over 35% in size
Inconclusive results are not listed. Activity calls are given as the source filed them. The call rests on the fitted dose curve; in most records, active means well fitted cell-killing curve with a large enough effect; inconclusive means small, poorly fitted or top-dose-only effect, or effect the other way; inactive means no such curve, though single readings can be large or run the other way.
Allowed answers: active, inactive

CNC[C@H](O)c1ccc(O)c(O)c1
active
Cc1cc(Cl)ccc1OCCCC(=O)NO
active
CCc1nc(N)nc(N)c1-c1ccc(Cl)cc1
active
CCC1=C(C)CN(C(=O)NCCc2ccc(S(=O)(=O)NC(=O)NC3CCC(C)CC3)cc2)C1=O (configuration not stated)
inactive
O=C(O)c1cccnc1Nc1cccc(C(F)(F)F)c1
inactive

Ask: GET /call?item= NC(=NCc1ccccc1)NC(=O)c1nc(Cl)c(N)nc1N returns the recorded outcome of this test.
Reply: inactive

Ask: GET /call?item= C[C@@H](c1ncncc1F)[C@](O)(Cn1cncn1)c1ccc(F)cc1F returns the recorded outcome of this test.
Reply: inactive

Ask: GET /call?item= CCC(C)(Oc1ccc(C2(c3ccc(OC(C)(CC)C(=O)O)cc3)CCCCC2)cc1)C(=O)O (configuration not stated) returns the recorded outcome of this test.
Reply: inactive

Ask: GET /call?item= CC(C)[N+]1(C)[C@@H]2CC[C@H]1CC(OC(=O)C(CO)c1ccccc1)C2 (some centres not stated) returns the recorded outcome of this test.
Reply: inactive

Ask: GET /call?item= CNC[C@@H](O)[C@@H](O)[C@H](O)[C@H](O)CO returns the recorded outcome of this test.
Reply: inactive

Ask: GET /call?item= CN1CCC(=C2c3ccccc3CCc3sccc32)CC1 returns the recorded outcome of this test.
Reply: inactive

Ask: GET /call?item= Nc1nc(Cl)nc2c1ncn2[C@H]1C[C@H](O)[C@@H](CO)O1 returns the recorded outcome of this test.
Reply: inactive

Ask: GET /call?item= O=C1c2ccccc2-c2n[nH]c3cccc1c23 returns the recorded outcome of this test.
Reply: inactive

Ask: GET /call?item= c1ccc2[nH]c(-c3cscn3)nc2c1 returns the recorded outcome of this test.
Reply: inactive

Ask: GET /call?item= CCC[C@@H]1C[C@@H](C(=O)N[C@@H]([C@H]2O[C@H](SC)[C@H](O)[C@@H](O)[C@H]2O)[C@@H](C)O)N(C)C1 returns the recorded outcome of this test.
Reply: inactive

Ask: GET /call?item= O=C1NC(=O)C(c2ccccc2[N+](=O)[O-])=C1Nc1ccc(O)c(Cl)c1 returns the recorded outcome of this test.
Reply: inactive

Ask: GET /call?item= CCCc1cc(=O)[nH]c(=S)[nH]1 returns the recorded outcome of this test.
Reply: inactive

The reported measurements were obtained from PubChem BioAssay (NCATS).
